# Run parameters: siRNA; further: test system not given here
HELM strings list units from the 5' end as sugar, base in round brackets, then linkage (d deoxyribose, r ribose, m 2'-O-methyl, p phosphodiester). Strings are as the collection lists them, not checked against the first reports. ss, as = sense and antisense strand; [fl2r] = 2'-fluoro
Measured parameter: target mRNA knockdown (%)
Response body: numeric value in %, unit text excluded.

Query: Answer with the recorded target mRNA knockdown of RNA1{[fl2r](A)p.r(C)p.[fl2r](C)p.r(U)p.[fl2r](U)p.r(A)p.[fl2r](A)p.r(G)p.[fl2r](G)p.r(A)p.[fl2r](C)p.r(C)p.[fl2r](A)p.r(C)p.[fl2r](C)p.r(G)p.[fl2r](G)p.r(A)p.[fl2r](U)p.r(T)p.r(T)}|RNA2{[fl2r](A)p.r(U)p.r(C)p.r(C)p.r(G)p.r(G)p.r(U)p.r(G)p.r(G)p.r(U)p.r(C)p.r(C)p.r(U)p.r(U)p.[fl2r](A)p.[fl2r](A)p.r(G)p.r(G)p.r(U)p.r(T)p.r(T)}$$$RNA1{StrandType:ss}|RNA2{StrandType:as}$ only.
Reply: 41

The reported measurements were obtained from the OligoGym collection.
